Recorded measurements of pIC50, one per entry
TESTED_SYSTEM: UniProt:P10321
pIC50: −log10 of the molar value. Peptide text beside a SMILES is read from it.

# example entries with known answers
CC[C@H](C)[C@H](N)C(=O)N[C@H](C(=O)N[C@@H](CC(N)=O)C(=O)N[C@@H](CO)C(=O)N[C@H](C(=O)N[C@@H](CC(C)C)C(=O)N[C@@H](CC(C)C)C(=O)N[C@@H](Cc1ccccc1)C(=O)N[C@@H](CC(C)C)C(=O)O)C(C)C)C(C)C [Epitope M7] (H-IVNSVLLFL-OH; N-terminus and C-terminus assumed) = < 4.82
CC[C@H](C)[C@H](N)C(=O)N[C@@H](C)C(=O)N[C@@H](CCSC)C(=O)N[C@@H](C)C(=O)N[C@@H](CS)C(=O)N[C@@H](CC(C)C)C(=O)N[C@H](C(=O)NCC(=O)N[C@@H](CC(C)C)C(=O)O)C(C)C [Epitope M44] (H-IAMACLVGL-OH; N-terminus and C-terminus assumed) = < 4.82

Here's the next entry for you.
Incoming: Which measured pIC50 value corresponds to CSCC[C@H](NC(=O)[C@H](CO)NC(=O)[C@H](CCCNC(=N)N)NC(=O)[C@@H](NC(=O)[C@H](CCCNC(=N)N)NC(=O)[C@H](C)NC(=O)[C@H](Cc1ccccc1)NC(=O)[C@H](CC(C)C)NC(=O)[C@@H](N)CCCNC(=N)N)[C@@H](C)O)C(=O)O [Epitope M41] (H-RLFARTRSM-OH; N-terminus and C-terminus assumed) ?
Outgoing: < 4.82

# credit: paper PMC12133982
